Biological target: human recombinant 15-PGDH (Homo sapiens)
Sequence (P15428 1-266): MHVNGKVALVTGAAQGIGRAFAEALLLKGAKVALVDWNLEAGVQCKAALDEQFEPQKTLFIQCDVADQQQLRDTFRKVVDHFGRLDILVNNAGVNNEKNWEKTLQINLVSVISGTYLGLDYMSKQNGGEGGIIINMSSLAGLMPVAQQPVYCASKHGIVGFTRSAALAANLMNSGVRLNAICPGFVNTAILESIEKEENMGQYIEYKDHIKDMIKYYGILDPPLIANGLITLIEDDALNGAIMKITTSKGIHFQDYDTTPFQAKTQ
Experiment: Recombinant 15-PGDH enzymatic inhibition assay (PGDH-Lumi, NADH signal)
Details: recombinant 15-PGDH; 15 min pre-incubation, 60 min reaction with PGE2 and NAD+, NADH signal
pIC50: −log10 of the molar value.
endpoint_name: pIC50

Known pIC50 results, listed for orientation:
Request: Identify measured pIC50 corresponding to Cn1cc2cc(-c3ccc4sc([C@]5(O)C[C@](C)(C#N)C5)cc4n3)cnc2n1 (single isomer, unassigned) [Compound C106T]
Response: 7.62

Request: Annotate the molecule Cn1nc2cc(-c3ccc4cc([C@@H](O)C5CCOCC5)sc4n3)cnc2n1 (single isomer, unassigned) [Compound B39S] with its measured pIC50.
Response: 6.74

Request: Specify measured pIC50 for Cn1cc2cc(-c3ccc4cc([C@@H](O)C(F)(F)F)sc4n3)cnc2n1 (single isomer, unassigned) [Compound B23S] .
Response: 6.92

Request: Read the entry CCC[C@@H](O)c1cc2ccc(-c3cnc4nn(C)cc4c3)nc2s1 (single isomer, unassigned) [Compound B27R] and write its reported pIC50.
Response: 9.59

Request: For the molecule Cc1c([C@@H](CO)C2CC(F)(F)C2)sc2nc(-c3cnc4nn(C)cc4c3)ccc12 (single isomer, unassigned) [Compound B93R] , give its reported pIC50.
Response: 6.76

Request: Complete the entry with pIC50 for Cn1cc2cc(-c3ccc4nc([C@@H](O)C5CC(F)(F)C5)sc4n3)cnc2n1 (single isomer, unassigned) [Compound B72S]
Response: 8.02

Request: Please report pIC50 for the following molecule: Cn1cc2cc(-c3ccc4cc(C(C)(O)C5CC5)sc4n3)cnc2n1 (stereo not shown)
Response: 7.00

Request: Name the recorded pIC50 of the molecule listed here: Cc1cn2cc(-c3ccc4cc([C@H](O)C5CC(F)(F)C5)sc4n3)ccc2n1 (single isomer, unassigned) [Compound B48R]
Response: 9.40

Request: Specify measured pIC50 for Cn1cc2cc(-c3ccc4cc([C@]5(O)C[C@@H](C(F)F)C5)sc4n3)cnc2n1 [Compound C30C] .
Response: 9.56

Request: Please give the documented pIC50 of Cn1cc2cc(-c3ccc4cc([C@]5(O)C[C@]6(CC6(F)F)C5)sc4n3)cnc2n1 (single isomer, unassigned) [Compound C88C]
Response: 9.30

P = Cn1ccc2cc(-c3ccc4cc([C@H](O)C5CC(F)(F)C5)sc4n3)ccc2c1=O (single isomer, unassigned) [Compound B50R]
Q = Cc1nc2ccc(-c3ccc4cc([C@H](O)C5CC(F)(F)C5)sc4n3)cc2o1 (single isomer, unassigned) [Compound B51R]
Request: Select one: P or Q . Criterion: greater recorded pIC50. Returns: label corresponding to the selected item.
Response: Q
